target: human KDR protein in HEK-293 cells (Homo sapiens (Human)); assay: KDR Cell Assay (phospho-KDR in HEK-293 cells expressing inducible KDR); format: cell-based; conditions: pKDR Cell HEK 10% FBS IC50, HEK-293 cells expressing inducible KDR, VEGF stimulated, 10% FBS
Sequence (P35968 20-1356): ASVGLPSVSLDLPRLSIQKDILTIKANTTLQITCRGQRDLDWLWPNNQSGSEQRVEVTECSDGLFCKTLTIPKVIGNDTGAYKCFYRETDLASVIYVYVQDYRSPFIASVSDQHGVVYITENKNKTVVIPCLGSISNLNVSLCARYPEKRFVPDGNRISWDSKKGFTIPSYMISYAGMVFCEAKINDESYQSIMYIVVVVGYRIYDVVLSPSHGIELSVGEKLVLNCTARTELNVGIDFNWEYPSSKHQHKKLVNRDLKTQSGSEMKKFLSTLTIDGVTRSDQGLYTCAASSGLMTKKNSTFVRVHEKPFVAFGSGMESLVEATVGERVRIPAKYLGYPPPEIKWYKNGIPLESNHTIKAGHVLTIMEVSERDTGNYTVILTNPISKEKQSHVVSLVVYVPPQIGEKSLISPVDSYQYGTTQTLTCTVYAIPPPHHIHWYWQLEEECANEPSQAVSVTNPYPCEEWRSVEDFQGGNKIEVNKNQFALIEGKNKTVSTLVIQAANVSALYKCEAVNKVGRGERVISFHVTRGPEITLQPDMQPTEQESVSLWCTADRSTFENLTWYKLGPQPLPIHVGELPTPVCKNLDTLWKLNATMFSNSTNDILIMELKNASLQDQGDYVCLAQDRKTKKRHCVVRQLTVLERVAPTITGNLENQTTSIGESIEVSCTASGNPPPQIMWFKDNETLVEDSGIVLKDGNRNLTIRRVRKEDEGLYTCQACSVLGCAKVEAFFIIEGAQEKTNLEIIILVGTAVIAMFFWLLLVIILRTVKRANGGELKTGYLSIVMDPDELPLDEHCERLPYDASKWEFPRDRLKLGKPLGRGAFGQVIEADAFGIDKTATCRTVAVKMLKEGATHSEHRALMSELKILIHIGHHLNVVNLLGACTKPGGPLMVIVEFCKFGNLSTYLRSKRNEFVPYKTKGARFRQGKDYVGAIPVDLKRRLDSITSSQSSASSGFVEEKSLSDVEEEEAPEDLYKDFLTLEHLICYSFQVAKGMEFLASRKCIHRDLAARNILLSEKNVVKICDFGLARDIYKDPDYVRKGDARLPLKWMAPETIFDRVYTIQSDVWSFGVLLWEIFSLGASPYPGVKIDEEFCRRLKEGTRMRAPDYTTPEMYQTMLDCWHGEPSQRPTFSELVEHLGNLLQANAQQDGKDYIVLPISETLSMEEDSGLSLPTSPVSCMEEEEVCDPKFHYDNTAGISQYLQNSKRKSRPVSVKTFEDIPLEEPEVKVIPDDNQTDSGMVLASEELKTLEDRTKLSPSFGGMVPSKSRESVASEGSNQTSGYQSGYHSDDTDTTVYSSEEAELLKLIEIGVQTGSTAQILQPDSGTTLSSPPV
pIC50: −log10 of the molar value.
Classify as follows. Reported pIC50 greater than or equal to 6: met. Reported pIC50 below: not met.

- itemSmiles: "CCCc1onc(C)c1C(=O)N1CCN(c2ccc(-c3cc(-c4cnn(C)c4)cn4ncc(C#N)c34)cn2)CC1"
  group: "met"
- itemSmiles: "Cn1cc(-c2cc(-c3cnc(N4CCN(C(=O)[C@H](O)c5ccccc5)CC4)cn3)c3c(C#N)cnn3c2)cn1"
  group: "not met"

In plain terms: is recorded pIC50 at least 6 for CCN(C)C(=O)N1CCN(c2ccc(-c3cc(-c4cnn(C)c4)cn4ncc(C#N)c34)cn2)CC1 ? not met

Hi team, for CC(C)NC(=O)C1(C)CCN(c2ccc(-c3cc(-c4cnn(C)c4)cn4ncc(C#N)c34)cn2)CC1 , is the recorded pIC50 at or above 6? met
